Reported growth by item:
System: SF-539 CNS
Test name: NCI-60 one-dose screen, 48 h (100 = growth as untreated, 0 = no growth, -100 = all killed)
Recorded conditions: 10 µM unless noted
Compounds without any hit were thinned out: in the full panel of roughly 83,000, 20% have a hit.
Endpoint: growth (%)

[[record]]
compound = "FC(F)(F)c1cccc(Nc2nc3ccccc3nc2Nc2cccc(C(F)(F)F)c2)c1"
endpoint = "growth"
measured = -78.7

[[record]]
compound = "Cc1ccccc1CNC(=O)C1CN(c2ccc(Cl)cc2)N(c2ccc(Cl)cc2)C1=O (stereo not given)"
endpoint = "growth"
measured = 98.7

[[record]]
compound = "Brc1ccc(Oc2ccc(Nc3ncnc4onc(-c5ccccc5)c34)cc2)cc1"
endpoint = "growth"
measured = 96.2

[[record]]
compound = "O=NN(C(=O)NC1CCC(C(=O)O)CC1)C1CCC(C(=O)O)CC1 (stereo not given)"
endpoint = "growth"
measured = 103

[[record]]
compound = "COc1ccc(C2Nc3ncnc(N)c3N=C3c4ccccc4C(=O)C32)cc1 (stereo not given)"
endpoint = "growth"
measured = 100

[[record]]
compound = "O=C(c1ccccc1)N(C(=S)NCCc1ccc(Cl)cc1)c1ccccc1"
endpoint = "growth"
measured = 104

[[record]]
compound = "O=C(Nc1nc2c(s1)CCc1c-2c(Br)n(Cc2ccccc2)c1Br)c1ccccc1"
endpoint = "growth"
measured = 18.1

[[record]]
compound = "COc1ccc(-c2c(-c3ccc(OC)c(O)c3)cnc3ncnn23)cc1"
endpoint = "growth"
measured = 98.6

[[record]]
compound = "CC(=O)c1ccc2oc(=O)n(Cc3ccc(C#N)cc3)c(=O)c2c1"
endpoint = "growth"
measured = 96.8

[[record]]
compound = "COc1c(B(O)O)cccc1-c1nc2ccc3n[nH]c(F)c3c2c2c1CCCC2"
endpoint = "growth"
measured = 25.1


---

Test system: RXF 393 renal
Test name: NCI-60 one-dose screen, 48 h (100 = growth as untreated, 0 = no growth, -100 = all killed)
Recorded conditions: 10 µM unless noted
This is part of a sample that, as a whole, favours compounds with a hit. Of some 83,000 tested, about 20% had one in any assay.
Classification field: yes (1) = growth at or over 40%; no (0) = growth under 40%.

[[record]]
compound = "CCOC(=O)c1cc2c(n1Cc1ccccc1)-c1oncc1CCC2"
system_tested = "RXF 393 renal"
category = "yes (1)"

[[record]]
compound = "CNCCNc1nc2ccccc2c2c(=O)c3cccc(OC)c3sc12"
system_tested = "RXF 393 renal"
category = "yes (1)"

[[record]]
compound = "COC(=O)C1=Nc2ccc(F)cc2/C1=C/c1sc(=S)[nH]c1O"
system_tested = "RXF 393 renal"
category = "no (0)"

[[record]]
compound = "O=c1c(-c2nc3ccccc3[nH]2)cc2ccccc2n1Cc1cn(Cc2ccccc2Cl)nn1"
system_tested = "RXF 393 renal"
category = "no (0)"

[[record]]
compound = "CC1=C(C(=O)OCC2CCN(C(=O)OC(C)(C)C)CC2)[C@H](c2cccc(Br)c2)C2=C(CC(C)(C)CC2=O)N1"
system_tested = "RXF 393 renal"
category = "yes (1)"

[[record]]
compound = "CNC(=O)c1cc(Oc2ccc(CC(=O)Nc3cc(C(C)(C)C)cn3C)cc2)ccn1"
system_tested = "RXF 393 renal"
category = "yes (1)"

[[record]]
compound = "COc1ccc(/C=C2\\CCC/C(=C\\c3ccc(OC)c(OC)c3)C2=O)cc1OC"
system_tested = "RXF 393 renal"
category = "no (0)"

[[record]]
compound = "O=C(Cc1ccccc1)NC(c1ccc(Cl)cc1)c1c(O)ccc2ccccc12 (stereo not drawn)"
system_tested = "RXF 393 renal"
category = "no (0)"

[[record]]
compound = "O=C1N=c2ccccc2=C1c1sc(=Nc2ccccc2)n(Nc2ccccc2)c1O"
system_tested = "RXF 393 renal"
category = "yes (1)"

[[record]]
compound = "COc1ccc(-c2cc(=O)c3c(OC)c4ccoc4c(/C=C/C=O)c3o2)cc1"
system_tested = "RXF 393 renal"
category = "yes (1)"

[[record]]
compound = "CCOC(=O)C(CC(=O)O)=C(C(=O)OCC)C(=O)OCC"
system_tested = "RXF 393 renal"
category = "yes (1)"

[[record]]
compound = "Cc1cc(OC(=O)c2ccc([N+](=O)[O-])cc2)nc2[nH]c(=O)sc12"
system_tested = "RXF 393 renal"
category = "yes (1)"

[[record]]
compound = "CN1C(=O)N(C)C2C1NN=c1s/c(=C\\c3ccc([N+](=O)[O-])cc3)c(=O)n12 (stereo not drawn)"
system_tested = "RXF 393 renal"
category = "yes (1)"

[[record]]
compound = "O=C(NC1CCN(Cc2ccccc2)CC1)c1cc2nc(-c3ccc(Cl)s3)cc(C(F)(F)F)n2n1"
system_tested = "RXF 393 renal"
category = "yes (1)"

[[record]]
compound = "O=c1oc2ccc(F)cc2c(=O)n1-c1ccc(F)cc1F"
system_tested = "RXF 393 renal"
category = "no (0)"

[[record]]
compound = "CCOC(=O)c1c(C=O)nc2ccccc2c1/C=C/c1ccc(Cl)cc1"
system_tested = "RXF 393 renal"
category = "yes (1)"

[[record]]
compound = "COc1cc(C(=O)O/N=C(\\N)Cc2cccc3ccccc23)cc(OC)c1OC"
system_tested = "RXF 393 renal"
category = "no (0)"

[[record]]
compound = "CC[C@]1(O)C[C@@H]2CN(CCc3c([nH]c4ccccc34)[C@@](C(=O)OC)(c3cc4c(cc3OC)N(C)[C@H]3[C@@](O)(C(=O)OC)[C@H](OC(C)=O)[C@]5(CC)C=CCN6CC[C@]43[C@@H]65)C2)C1"
system_tested = "RXF 393 renal"
category = "no (0)"

[[record]]
compound = "CCN1C(=O)N(c2ccccc2)C2Nn3c(s/c(=C4\\C(=O)N(C(C)C)c5ccccc54)c3=O)=NC21 (stereo not drawn)"
system_tested = "RXF 393 renal"
category = "yes (1)"

[[record]]
compound = "Nc1ccccc1-c1ccc(-c2ccc(Cl)cc2)c2c1[nH]c1ccccc12"
system_tested = "RXF 393 renal"
category = "yes (1)"

[[record]]
compound = "Brc1ccc(Nc2nc3ccccc3nc2Nc2ccc(Br)cc2)cc1"
system_tested = "RXF 393 renal"
category = "no (0)"

[[record]]
compound = "COc1cc(CNC(=O)Cc2ccccc2)ccc1OCc1cn(-c2ccc(F)cc2)nn1"
system_tested = "RXF 393 renal"
category = "yes (1)"

[[record]]
compound = "COC(=O)[C@H]1CCCN1C(=O)[C@H]1CCCN1C(=O)[C@H](Cc1c[nH]c2ccccc12)NC(=S)Nc1cc(C(F)(F)F)cc(C(F)(F)F)c1"
system_tested = "RXF 393 renal"
category = "yes (1)"

[[record]]
compound = "c1ccc2cc3c(Nc4ccc(N5CCOCC5)cc4)ccnc3cc2c1"
system_tested = "RXF 393 renal"
category = "yes (1)"

[[record]]
compound = "CCCCN1CCN(c2ccc3nc(-c4ccc5nc(-c6ccc(OC)c(OC)c6)[nH]c5c4)[nH]c3c2)CC1"
system_tested = "RXF 393 renal"
category = "no (0)"

[[record]]
compound = "CN1CCN(Cc2ccc(C(=O)Nc3cncc(C#Cc4cnc(N)c5ccccc45)c3)cc2C(F)(F)F)CC1"
system_tested = "RXF 393 renal"
category = "no (0)"

[[record]]
compound = "Nc1ccc(-c2nn3c(CCC(=O)c4nc5ncccc5[nH]4)nnc3s2)c(O)c1"
system_tested = "RXF 393 renal"
category = "yes (1)"

[[record]]
compound = "NC1(N2SC(S)=C3CCCC=C32)CCCCC1"
system_tested = "RXF 393 renal"
category = "yes (1)"

[[record]]
compound = "COc1cc2nc(NC3CCC3)nc(NC3CCN(C(C)C)CC3)c2cc1OC"
system_tested = "RXF 393 renal"
category = "no (0)"

[[record]]
compound = "COC(=O)C1(C)CCC[C@]2(C)[C@H]3C[C@H]4C(C(C)C)=C[C@]3(CC[C@@H]12)[C@H]1[C@@H]4[C@@H](OCC#CCN2CCOCC2)CC[C@@H]1OCC#CCN1CCOCC1 (stereo partly drawn)"
system_tested = "RXF 393 renal"
category = "yes (1)"

[[record]]
compound = "Cc1ccc2cc3c(N)c4c(C)ccc(C)c4nc3nc2c1"
system_tested = "RXF 393 renal"
category = "yes (1)"

[[record]]
compound = "COc1ccc(Nc2nc(N/N=C/c3ccc(O)cc3)nc(Nc3ccc([N+](=O)[O-])cc3)n2)cc1"
system_tested = "RXF 393 renal"
category = "yes (1)"

[[record]]
compound = "O=c1oc2ccc(F)cc2c(=O)n1-c1ccc(Br)cc1F"
system_tested = "RXF 393 renal"
category = "no (0)"

[[record]]
compound = "CCOC(=O)c1cc2c(n1Cc1cc(OC)cc(OC)c1)-c1oncc1CCC2"
system_tested = "RXF 393 renal"
category = "no (0)"

[[record]]
compound = "O=C(/C=C/c1ccccn1)c1ccc(OCc2nnc(-c3ccc(Cl)cc3)o2)cc1"
system_tested = "RXF 393 renal"
category = "no (0)"

[[record]]
compound = "O=C(Nc1ccc(C23CC4CC(CC(c5ccccc5)(C4)C2)C3)cc1)c1cccs1"
system_tested = "RXF 393 renal"
category = "yes (1)"

[[record]]
compound = "O=C(COc1cc(O)c2c(=O)cc(-c3ccccc3)oc2c1)Nc1ccccc1C(F)(F)F"
system_tested = "RXF 393 renal"
category = "yes (1)"

